Source listed as patent USRE50528E1.

# pIC50 values compiled below
Target: EGFR mutant Del19 (E746-A750) (Homo sapiens, UniProt P00533, DEL746-750)
Construct: truncated human JAK3, EGFR mutants such as del E746-A750; purchased Carna Biosciences
Sequence (P00533 with tags, fused parts or gaps DEL746-750 limits assumed): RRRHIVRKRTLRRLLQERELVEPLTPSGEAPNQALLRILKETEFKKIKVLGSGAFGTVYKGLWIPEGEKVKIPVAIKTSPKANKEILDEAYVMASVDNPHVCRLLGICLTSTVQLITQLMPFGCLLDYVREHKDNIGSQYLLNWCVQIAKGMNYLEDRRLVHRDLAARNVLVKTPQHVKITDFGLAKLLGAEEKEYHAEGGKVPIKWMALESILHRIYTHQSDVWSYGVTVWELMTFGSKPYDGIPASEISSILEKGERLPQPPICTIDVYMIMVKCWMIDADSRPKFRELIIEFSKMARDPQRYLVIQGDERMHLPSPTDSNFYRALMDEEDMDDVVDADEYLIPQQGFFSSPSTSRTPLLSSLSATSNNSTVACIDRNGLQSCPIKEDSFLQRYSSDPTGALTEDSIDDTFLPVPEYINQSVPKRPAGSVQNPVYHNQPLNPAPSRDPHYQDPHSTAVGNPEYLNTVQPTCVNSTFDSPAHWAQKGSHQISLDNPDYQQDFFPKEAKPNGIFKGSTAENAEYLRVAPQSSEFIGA
Assay: Kinase inhibition assay, EGFR del E746-A750;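 also: truncated human EGFR mutant kinase, two-hour preincubation with compound, then one-hour reaction with ATP and ULight-PolyGT peptide, LANCE Europium-antibody phosphorylation readout, IC50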
Type: biochemical
Settings: read-out: EGFR mutants Del19 (E746-A750)
pIC50: −log10 of the molar value.

The following compounds have reported results that may help.
Could you share what pIC50 was measured for C=CC(=O)Nc1cc(Nc2nccc(-n3cc(CN4CCC4)c(C(C)(C)C)n3)n2)c(OC)cc1N(C)C1COC1 [Compound 103] , tested on EGFR mutant Del19 (E746-A750) (Homo sapiens, UniProt P00533, DEL746-750)? > 7.70

Request: C=CC(=O)Nc1cc(Nc2ncc(C)c(-n3cc(CN4CCOCC4)cn3)n2)c(OC)cc1N1CCN(C)CC1 [Compound 33] 6.70 to 7.70

What about this compound? CCC(=O)Nc1cc(Nc2nccc(-n3cc(CN4CCC4)c(-c4ccccc4)n3)n2)c(OC)cc1N1CCOCC1 [Compound 158, reference compound] < 6.00

Note, next up: C=CC(=O)Nc1cc(Nc2nccc(-n3cc(CN4CCC4)c(C)n3)n2)c(OC)cc1N1CCN(C)CC1 [Compound 17] > 7.70

Another compound: C=CC(=O)Nc1cc(Nc2ncc(C)c(-n3cc(CN4CC[C@H](O)C4)c(C)n3)n2)c(OC)cc1N1CCOCC1 [Compound 28] > 7.70

***
Entry C=CC(=O)Nc1cc(Nc2ncc(F)c(-n3cc(CN4CCC4)c(C)n3)n2)c(OC)cc1N1CCOCC1 [Compound 62] , system EGFR mutant Del19 (E746-A750) (Homo sapiens, UniProt P00533, DEL746-750): what pIC50 was measured? > 7.70

Follow-up item: C=CC(=O)Nc1cc(Nc2nccc(-n3cc(CN4CCC4)c(-c4ccc(C)cc4)n3)n2)c(OC)cc1N1CCOCC1 [Compound 82] > 7.70

====

System: H2073 (EGFR wildtype)
Assay: Cell viability assay, H2073;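 also: NSCLC cell line whose survival relies on wildtype EGFR, treated with serially diluted compound, cytotoxic effect judged from remaining cell viability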
Type: cell-based
Details: NCI-H2073; cellular potency; 72-hour incubation; ATPLite
Recorded IC50, one value per entry.

# count of solved cases: 3
# IC50 lookup, item C=CC(=O)Nc1cc(Nc2nccc(-n3cc(CN(C)C)c(C)n3)n2)c(OC)cc1N1CCN(CCF)CC1 > 1 µM

Also, C=CCC(=O)Nc1cc(Nc2nccc(-n3cc(CN(C)C)c(-c4ccccc4)n3)n2)c(OC)cc1N1CCOCC1 [Compound 154, reference compound] please. > 1 µM

Proceed to C=CC(=O)Nc1cc(Nc2nccc(-n3cc(CN4CCC4)c(-c4cccs4)n3)n2)c(OC)cc1N1CCOCC1 0.201 to 1 µM

---
Which IC50 value belongs to C=CC(=O)Nc1cc(Nc2ncc(C)c(-n3cc(CN4CCC4)cn3)n2)c(OC)cc1N1CCN(C)CC1 ? > 1 µM

Lookup CCC(=O)Nc1cc(Nc2nccc(-n3cc(CN(C)C)c(-c4ccccc4)n3)n2)c(OC)cc1N1CCOCC1 [Compound 157, reference compound] > 1 µM

Field entry: Cc1cc(Nc2nccc(-n3cc(CN4CC[C@@H](O)C4)c(C)n3)n2)cc(C)c1OCCN1CCCC1 [Compound 148, reference compound] > 1 µM

====

pIC50: −log10 of the molar value.
pIC50 tested on SYK (Homo sapiens): recorded values;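 also: purified full-length human SYK pre-incubated 30 min with compound, then ULight-TK peptide phosphorylation for 1 h, detected with Europium-labeled antibody in Lance buffer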

Please look up its pIC50: C=CC(=O)Nc1cc(Nc2ncc(C)c(-n3cc(CN4CC(O)C4)cn3)n2)c(OC)cc1N1CCOCC1 [Compound 19] 6.70 to 7.70

Follow-up entry: C=CC(=O)Nc1cc(Nc2ncc(C)c(-n3cc(CN4CCC4)cn3)n2)c(OC)cc1N1CCN(C)CC1 [Compound 36] < 6.00

Then what about the compound C=C(F)C(=O)Nc1cc(Nc2nccc(-n3cc(CN4CCC4)c(-c4ccccc4)n3)n2)c(OC)cc1N1CCOCC1 [Compound 159, reference compound] ? < 6.00

Now give it for C=CC(=O)Nc1cc(Nc2nccc(-n3cc(CN(C)C)c(C(C)C)n3)n2)c(OC)cc1N(C)C1COC1 [Compound 114] too. 6.00 to 6.70

C=CC(=O)Nc1cc(Nc2nccc(-n3cc(CN4CCC4)c(C)n3)n2)c(OC)cc1N1CCN(C)CC1 [Compound 17] ? 6.00 to 6.70

Next:
Endpoint output: pIC50 of C=CC(=O)Nc1cc(Nc2nccc(-n3cc(CN(C)C)c(C(C)C)n3)n2)c(OC)cc1N1CCCC1 [Compound 116] . Value? < 6.00

====

Target: EGFR mutant T790M (Homo sapiens, UniProt P00533, T790M)
Construct: truncated human JAK3, EGFR mutants such as del E746-A750
Sequence (P00533 669-1210 T790M limits assumed): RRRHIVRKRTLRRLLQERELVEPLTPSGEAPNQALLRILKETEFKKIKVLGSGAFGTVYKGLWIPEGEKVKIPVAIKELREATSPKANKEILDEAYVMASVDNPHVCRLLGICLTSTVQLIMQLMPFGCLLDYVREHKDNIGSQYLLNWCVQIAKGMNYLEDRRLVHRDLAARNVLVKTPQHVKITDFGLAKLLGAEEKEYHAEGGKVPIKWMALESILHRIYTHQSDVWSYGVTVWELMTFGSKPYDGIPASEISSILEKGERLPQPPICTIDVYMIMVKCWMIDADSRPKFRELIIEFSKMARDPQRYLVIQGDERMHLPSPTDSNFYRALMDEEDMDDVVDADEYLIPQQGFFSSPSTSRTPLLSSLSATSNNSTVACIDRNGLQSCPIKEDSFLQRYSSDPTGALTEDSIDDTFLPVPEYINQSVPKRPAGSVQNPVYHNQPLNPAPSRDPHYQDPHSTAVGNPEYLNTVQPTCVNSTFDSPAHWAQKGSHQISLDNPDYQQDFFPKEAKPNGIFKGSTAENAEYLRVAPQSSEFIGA
Experiment: Kinase inhibition assay, EGFR mutant T790M;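 also: truncated human EGFR mutant enzyme preincubated two hours with compound, then ATP plus ULight-PolyGT peptide for one hour, Europium-labeled antibody LANCE detection, IC50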
Conditions: biochemical potency
pIC50: −log10 of the molar value.
pIC50 listing for selected molecules.

Here are 6 molecules together with their reported answers.
If you can, please state the reported pIC50 value of C=CC(=O)Nc1cc(Nc2ncc(C)c(-n3cc(CN(C)C)c(C(C)C)n3)n2)c(OC)cc1N1CCOCC1 [Compound 124] . > 7.70

And the next one, COc1cc(N2CCOCC2)c([N+](=O)[O-])cc1Nc1nccc(-n2cc(CN(C)C)c(-c3ccccc3)n2)n1 [Compound 152, reference compound] ? < 6.00

Further, for C=CC(=O)Nc1cc(Nc2nccc(-n3cc(CN(C)CC)c(C4CC4)n3)n2)c(OC)cc1N1CCN(C(C)=O)CC1 [Compound 137] ? > 7.70

Repeat for the following molecule: C=CC(=O)Nc1cc(Nc2nccc(-n3cc(CN(C)C)c(C(C)(C)C)n3)n2)c(OC)cc1N1CCCC1 [Compound 104] > 7.70

Here is the next molecule: C=CC(=O)Nc1cc(Nc2nccc(-n3cc(CN(C)C)c(C4CC4)n3)n2)c(OC)cc1N1CCOCC1 [Compound 74] > 7.70

Next: C=CC(=O)Nc1cc(Nc2nccc(-n3cc(CN4CCC4)c(-c4ccc(F)cc4)n3)n2)c(OC)cc1N1CCOCC1 [Compound 81] 6.00 to 6.70

***
Which pIC50 value belongs to C=CC(=O)Nc1cc(Nc2nccc(-n3cc(CN(C)CC)c(-c4ccccc4)n3)n2)c(OC)cc1N1CCOCC1 [Compound 92] ? > 7.70

====

Target: EGFR mutant L858R/T790M (Homo sapiens, UniProt P00533, L858R/T790M)
Construct: truncated human JAK3, EGFR mutants such as del E746-A750; purchased Carna Biosciences
Sequence (P00533 669-1210 T790M/L858R limits assumed): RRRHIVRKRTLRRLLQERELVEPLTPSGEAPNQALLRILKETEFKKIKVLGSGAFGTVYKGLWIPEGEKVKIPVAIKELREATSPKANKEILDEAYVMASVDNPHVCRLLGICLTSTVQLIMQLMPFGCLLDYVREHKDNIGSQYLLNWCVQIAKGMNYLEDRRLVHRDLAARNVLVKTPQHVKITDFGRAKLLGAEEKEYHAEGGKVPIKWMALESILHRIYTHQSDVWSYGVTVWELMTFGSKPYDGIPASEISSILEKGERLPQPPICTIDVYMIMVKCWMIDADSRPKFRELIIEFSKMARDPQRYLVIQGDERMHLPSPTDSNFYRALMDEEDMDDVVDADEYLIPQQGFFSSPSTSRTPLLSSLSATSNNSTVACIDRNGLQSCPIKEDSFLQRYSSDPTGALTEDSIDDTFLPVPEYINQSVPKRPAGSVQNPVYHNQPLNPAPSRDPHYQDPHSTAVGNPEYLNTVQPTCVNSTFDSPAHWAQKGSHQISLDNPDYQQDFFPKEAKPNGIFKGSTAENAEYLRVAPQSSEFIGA
Assay: Kinase inhibition assay, EGFR L858R/T790M;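 also: truncated human enzyme preincubated two hours with compound, then one hour with one millimolar ATP and ULight-PolyGT peptide, Europium-labeled antibody detection, IC50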
Format: biochemical
Details: read-out: EGFR mutants L858R/T790M
Reported IC50 values are given for each entry in this list.

Some solved entries appear below for comparison.
I would be grateful if you could share the reported IC50 for C=CC(=O)Nc1cc(Nc2ncc(C)c(-n3cc(CN4C[C@H](O)[C@H](OC)C4)cn3)n2)c(OC)cc1N1CCOCC1 . < 20 nM

Continue with C=CC(=O)Nc1cc(Nc2ncc(Cl)c(-n3cc(CN4C[C@@H](O)[C@@H](O)C4)c(C)n3)n2)c(OC)cc1N1CCN(C)CC1 < 20 nM

What do we get for C=CC(=O)Nc1cc(Nc2nccc(-n3cc(CN(C)CC)c(C4CC4)n3)n2)c(OC)cc1N1CCN(C(C)=O)CC1 ? < 20 nM

Continuing:
What IC50 value was documented for this molecule, C=CC(=O)Nc1cc(Nc2nccc(-n3cc(CN4CC[C@@H](N(C)C)C4)cn3)n2)c(OC)cc1N1CCOCC1 ? 201 to 1000 nM

Now this one: C=CC(=O)Nc1cc(Nc2ncc(C)c(-n3cc(CN4CCC4)c(C(C)(C)C)n3)n2)c(OC)cc1N1CCOCC1 < 20 nM

Would you kindly repeat that for C=CC(=O)Nc1cc(Nc2nccc(-n3cc(CN4C[C@H](O)[C@H](OC)C4)c(C4CC4)n3)n2)c(OC)cc1N1CCOCC1 ? < 20 nM

Now give it for C=CC(=O)Nc1cc(Nc2nccc(-n3cc(CN(C)C)c(-c4ccccc4)n3)n2)c(OC)cc1N1CCCC1 too. 20 to 200 nM

And then C=CC(=O)Nc1cc(Nc2nccc(-n3cc(CN(C)C)c(-c4ccccc4)n3)n2)c(OC)cc1N1CCC1 , what is it? < 20 nM

Record: C=CC(=O)Nc1cc(Nc2nccc(-n3cc(CN4CCC4)c(C(C)C)n3)n2)c(OC)cc1N(C)CCOC < 20 nM

Same lookup for C=CC(=O)Nc1cc(Nc2nccc(-n3cc(CN4CCC4)c(C4CC4)n3)n2)c(OC)cc1N(C)CCOC , please. < 20 nM

Then what about the molecule C=CC(=O)Nc1cc(Nc2ncc(F)c(-n3cc(C)c(CN4CCC4)c3)n2)c(OC)cc1N1CCC1 ? < 20 nM

And for C=CC(=O)Nc1cc(Nc2nccc(-n3cc(CN4CCC4)c(C)n3)n2)c(OC)cc1N1CCOCC1 ? < 20 nM

Lookup C=CC(=O)Nc1cc(Nc2nccc(-n3cc(CN(C)CC)c(-c4ccccc4)n3)n2)c(OC)cc1N1CCOCC1 < 20 nM

Please give the result for Cc1cc(C)cc(Nc2nccc(-n3cc(CN4CC(O)C4)c(C)n3)n2)c1 [Compound 147, reference compound] too. 201 to 1000 nM
